System: MDA-MB-231 (breast)
test-name: In vitro cytotoxic activity MTT assay, MDA-MB-231
Type: cell-based
test-context: Homo sapiens, cells exposed for 96 hours, read-out: Cytotoxicity activity IC50 (50% inhibition of cell proliferation)
From the text: Compounds 1-16 were screened for their in vitro cytotoxic activity utilizing a 3-(4,5-dimethyl-thiazol-2-yl)-2,5-diphenyltetrazolium bromide (MTT) assay against selected cancer human cell lines consisting of PC3 (prostate), HCT116 (colon), A375 (melanoma), H1299 (lung), MIAPaCa-2 (pancreas), HL60 (leukemia), MCF7 (breast), MDA-MB-231 (breast) (T. Mosmann, J. Immunol. Meth., 1983, 65, 55-63). […]
property-label: IC50 (µM)
The figure you give is taken to be in µM; do not add the unit.

// returns reported IC50 for input O=C(O)c1ccn2c1nc(Nc1cccc(Cl)c1)c1ccncc12
4.2

---

Test system: H1299 (lung)
test-name: In vitro cytotoxic activity MTT assay, H1299
Assay type: cell-based
test-context: Homo sapiens, NCI-H1299, cells exposed for 96 hours, read-out: Cytotoxicity activity IC50 (50% inhibition of cell proliferation)
property-label: IC50 (nM)
The figure you give is taken to be in nM; do not add the unit.

// returns reported IC50 for input O=C(O)c1ccn2c1nc(Nc1cccc(Cl)c1)c1ccncc12 [Compound 1]
1900

---

Test system: MCF7 (breast)
test-name: In vitro cytotoxic activity MTT assay, MCF7
Assay type: cell-based
test-context: Homo sapiens, cells exposed for 96 hours, read-out: Cytotoxicity activity IC50 (50% inhibition of cell proliferation)
property-label: IC50

// returns reported IC50 for input O=C(O)c1ccn2c1nc(Nc1cccc(Cl)c1)c1ccncc12
5.6 µM

---

assayed-target: recombinant human CK2 (RRBB-holoenzyme) (Homo sapiens)
Construct: purchased Millipore
Sequence (P68400 whole entry): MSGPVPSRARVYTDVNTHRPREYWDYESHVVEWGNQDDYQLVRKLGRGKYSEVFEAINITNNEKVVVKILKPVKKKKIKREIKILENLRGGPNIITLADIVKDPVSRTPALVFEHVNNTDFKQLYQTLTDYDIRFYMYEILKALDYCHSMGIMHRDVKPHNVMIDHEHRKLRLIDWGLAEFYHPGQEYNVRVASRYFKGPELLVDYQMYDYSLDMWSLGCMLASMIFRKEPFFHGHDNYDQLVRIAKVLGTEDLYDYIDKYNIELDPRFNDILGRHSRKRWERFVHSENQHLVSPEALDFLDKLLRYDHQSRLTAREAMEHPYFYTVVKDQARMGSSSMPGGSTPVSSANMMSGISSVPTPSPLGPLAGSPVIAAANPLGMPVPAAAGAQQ
Sequence (P67870 whole entry partner): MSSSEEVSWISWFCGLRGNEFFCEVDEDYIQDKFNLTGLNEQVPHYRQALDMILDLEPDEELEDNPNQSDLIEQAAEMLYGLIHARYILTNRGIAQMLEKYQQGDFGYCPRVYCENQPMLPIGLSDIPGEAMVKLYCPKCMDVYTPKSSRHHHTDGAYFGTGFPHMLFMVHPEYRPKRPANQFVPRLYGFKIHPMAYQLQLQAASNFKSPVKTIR
test-name: CK2 Kinase Assay (33P-ATP, filter plate)
Type: biochemical
test-context: recombinant human CK2, final ATP concentration 15 μM, 10 min at 30° C.; read-out: protein kinase CK2 inhibition IC50
property-label: IC50 (nM)
The figure you give is taken to be in nM; do not add the unit.

// returns reported IC50 for input O=C(O)c1ccn2c1nc(Nc1cccc(Cl)c1)c1ccncc12 [Compound 1]
89
